The entries below are paired with their reported pKd.
Target: T1, mouse VISTA recombinant protein (Sino Biological Inc., Cat. #51550-M08H), biotinylated (mouse, UniProt Q9D659 33-191, biotinylated using EZ-LINK NHS-PEG4 biotin)
T1 chain: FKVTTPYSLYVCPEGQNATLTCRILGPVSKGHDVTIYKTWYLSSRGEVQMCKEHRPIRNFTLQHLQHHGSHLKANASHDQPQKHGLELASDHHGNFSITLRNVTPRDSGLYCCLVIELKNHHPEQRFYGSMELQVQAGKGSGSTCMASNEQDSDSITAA
Test: Octet (BLI)
pKd here is simply -log10 of the concentration when that concentration is written in mol/L.

Worked examples follow.
9F9 humanized anti-VISTA antibody VH15/VL15 (antibody, V domains shown) VH: QVQLVQSGAEVMKPGASVKLSCKASGYTFTGYWMQWVKQRPGQGLEWIGAIYPGDGDTRYSQKFKGKATMTADTSISTAYMELSRLRSDDSAVYYCARRDYGAWFAYWGAGTTVTVSS VL: DIVMTQSPSSLSASVGERVTITCKASQDINSYLSWFQQKPGKAPKTLIYRANRLVDGVPSRFSGSGSGTDFTFTISSVQPEDLAIYYCLQYDEFPYTFGGGTKLEIK = 7.68
9F9 parental anti-VISTA antibody (VH0/VL0) (antibody, V domains shown) VH: QVQFQQSGAELARPGASVKLSCKASGYTFTGYWMQWVKQRPGQGLEWIGAIYPGDGDTRYSQKFKGKVTLTADKSSSTAYMQLSSLASEDSAVYYCARRDYGAWFAYWGQGTLVTVSA VL: DIKVTQSPSSMYASLGERVTITCKASQDINSYLSWFQQKPGKSPKTLIYRANRLVDGVPSRFSGSGSGQDYSLTISSLDYEDMGIYYCLQYDEFPYTFGGGTKLEIK = 7.91
9F9 humanized anti-VISTA antibody VH9/VL9 (antibody, V domains shown) VH: QVQFVQSGAEVKKPGSSVKVSCKASGYTFSGYWMQWVKQAPGQGLEWIGAIYPGDGDTRYSQKFKGKVTLTADESTSTAYMELSSLRSEDTAVYYCARRDYGAWFAYWGQGTLVTVSS VL: DIKVTQSPSSLSASVGDRVTITCKASQDINSYLSWYQQKPGKAPKTLIYRANRLVDGVPSRFSGSGSGQDYTFTISSLQPEDIATYYCLQYDEFPYTFGQGTKVEIK = 7.62

Now examine the next entry.
Prompt: May I ask what pKd has been recorded for 9F9 humanized anti-VISTA antibody VH14/VL15 (antibody, V domains shown) VH: QVQLVQSGAEVMKPGASVKISCKASGYTFTGYWMQWVRQRPGQGLEWIGAIYPGDGDTRYSQKFKGKATMTADTSISTAYMELSRLRSDDTAVYYCARRDYGAWFAYWGAGTTVTVSS VL: DIVMTQSPSSLSASVGERVTITCKASQDINSYLSWFQQKPGKAPKTLIYRANRLVDGVPSRFSGSGSGTDFTFTISSVQPEDLAIYYCLQYDEFPYTFGGGTKLEIK ?
Completion: 7.76

Measured values drawn from patent US20260078185A1 for this set.
